Assay: NCI Yeast Anticancer Drug Screen. Data for the sgs1 mgt1 strain (AID 161);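 also: 0% = growth of cultures given vehicle only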
Conditions: S. cerevisiae sgs1 mgt1 strain, at 50.0 µM
About 79,000 compounds went through this panel and 15% of them were active in at least one assay; those are over-represented in the sample as a whole. Activity calls are given as the source filed them. Rule as the data show it: active = growth inhibition above about 70%; inactive = the rest.
Mark one answer only. Choices: yes (1) for active, no (0) for inactive

See these solved cases before continuing.
- Compound: "[C-]#[O+].[C-]#[O+].[Mo].[N-]=Nc1ccc([N+](=O)[O-])cc1.[c-]1[c-][c-][cH-][c-]1"
  Classification: "yes (1)"
- Compound: "O=[N+]([O-])c1ccc([As](=O)(O)c2cccc([N+](=O)[O-])c2)cc1"
  Classification: "no (0)"
- Compound: "CCC1(C(C)c2ccccc2)C(=O)NC(=O)NC1=O (stereo not given)"
  Classification: "no (0)"

Record request — test call for CN1CCCC(OC(=O)C(c2ccccc2)C2(O)CCCC2)C1 (stereo not given)
no (0)

Record request — test call for CN(C)CCSC(c1ccccc1)c1ccc(Br)cc1 (stereo not given)
no (0)

---

# growth inhibition per record follows
Experiment: NCI Yeast Anticancer Drug Screen. Data for the rad50 strain (AID 155);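 also: 0% = growth of vehicle-only cultures of the same strain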
Settings: S. cerevisiae rad50 strain growth inhibition; at 50.0 µM (retest, dose inferred, filed as 5.0); hits give high values
The panel holds about 79,000 compounds, 15% with a hit somewhere; the sample as a whole holds those more often.
Please state the figure in %; there is no need to write the unit.

- Compound: "[Pt].c1ccc([PH+](c2ccccc2)c2ccccc2)cc1.c1ccc([PH+](c2ccccc2)c2ccccc2)cc1.c1ccc([PH+](c2ccccc2)c2ccccc2)cc1.c1ccc([PH+](c2ccccc2)c2ccccc2)cc1"
  Assay endpoint: "growth inhibition"
  Display unit: "%"
  Numeric readout: 62

If you can, please state the reported growth inhibition value of O=P(c1ccccc1)(c1ccccc1)c1ccccc1.[Cl][Sn]([c]1ccccc1)([c]1ccccc1)[c]1ccccc1 .
98

If you can, please state the reported growth inhibition value of COc1ccc([As]=[As]c2ccc(OC)c(I)c2)cc1I (stereo not given) .
99

If you can, please state the reported growth inhibition value of CC12OOC(c3ccccc31)c1c2ccc2ccccc12 (stereo not given) .
98

If you can, please state the reported growth inhibition value of CC(=O)NC1C(O[C@H]2CC[C@@]3(C)C(CC[C@]4(C)C3CC=C3C5CC(C)(C)CC[C@]5(C(=O)O)CCC34C)C2(C)C)OC(CO)C(O)C1O (stereo not given in full) .
98

If you can, please state the reported growth inhibition value of NNc1ccccc1 .
97

If you can, please state the reported growth inhibition value of Cc1ccc(NCc2ccccc2)cc1[As](=O)(O)O .
97

If you can, please state the reported growth inhibition value of OC1C2[C@@H](O)CCCN2C[C@@H](O)[C@H]1O (stereo not given in full) .
21

If you can, please state the reported growth inhibition value of CC(C)c1ccccc1OP(=S)(S)Oc1ccccc1C(C)C .
38

If you can, please state the reported growth inhibition value of ClCC[Se](Cl)(Cl)c1ccccc1 .
75

If you can, please state the reported growth inhibition value of COC(CNS(=O)(=O)c1ccccc1)[CH2][Hg][O]C(C)=O (stereo not given) .
-1

If you can, please state the reported growth inhibition value of CCCCCCCCc1ccc(OCCN(CCCl)CCCl)cc1 .
99

If you can, please state the reported growth inhibition value of NC1=NC(=O)N2CC12 (stereo not given) .
36

If you can, please state the reported growth inhibition value of COc1cc(C2c3cc4c(cc3[C@@H](Nc3ccc([N+](=O)[O-])cc3)C3COC(=O)[C@H]23)OCO4)cc(OC)c1O (stereo not given in full) .
96

If you can, please state the reported growth inhibition value of [CH3][Sn]([CH3])([Br])[Br].c1ccc(-c2nnc(-c3ccccn3)nc2-c2ccccc2)cc1 .
80

If you can, please state the reported growth inhibition value of NC(=O)Nc1ccc([As](Sc2ccccc2C(=O)O)Sc2ccccc2C(=O)O)cc1 .
14

If you can, please state the reported growth inhibition value of CC(C)C12C=C3CCC4C(C)(C(=O)O)CCCC4(C)C3(CC1)OO2 (stereo not given) .
90

If you can, please state the reported growth inhibition value of COc1cc(/C=C/[N+](=O)[O-])cc(OC)c1OC .
99

If you can, please state the reported growth inhibition value of CO[C@@]12[C@@H]3N[C@@H]3CN1C1=C(C(=O)C(N(C)c3ccc(O)cc3)=C(C)C1=O)[C@@H]2COC(N)=O .
64

If you can, please state the reported growth inhibition value of BrP(NC1CCCCCC1)(c1ccccc1)(c1ccccc1)c1ccccc1 .
97
